experimentalTarget: recombinant human aromatase (CYP19) (Homo sapiens, UniProt P11511)
Sequence (P11511 whole entry): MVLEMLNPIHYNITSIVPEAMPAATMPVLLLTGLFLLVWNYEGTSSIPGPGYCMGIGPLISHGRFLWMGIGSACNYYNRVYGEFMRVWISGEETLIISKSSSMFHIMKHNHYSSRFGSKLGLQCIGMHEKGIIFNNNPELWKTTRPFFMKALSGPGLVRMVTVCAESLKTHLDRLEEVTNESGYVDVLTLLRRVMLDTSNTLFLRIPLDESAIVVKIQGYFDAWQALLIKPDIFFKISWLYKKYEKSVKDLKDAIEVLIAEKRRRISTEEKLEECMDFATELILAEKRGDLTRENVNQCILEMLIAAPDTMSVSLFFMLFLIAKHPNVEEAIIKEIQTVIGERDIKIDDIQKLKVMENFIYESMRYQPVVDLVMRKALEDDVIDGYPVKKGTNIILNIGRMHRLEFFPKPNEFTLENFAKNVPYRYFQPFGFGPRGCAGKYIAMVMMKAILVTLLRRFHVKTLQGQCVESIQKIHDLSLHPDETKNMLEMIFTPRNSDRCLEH
assaySummary: Aromatase inhibition assay (Gentest kit, CYP19 with DBF fluorometric substrate)
assaySetup: category by experimental IC50
assayMetric: Aromatase inhibitory activity category

structureSmiles	experimentalTarget	assayMetric	valueObserved
COc1ccc(CCNC2=C(Cl)C(=O)c3ccccc3C2=O)cc1OC	recombinant human aromatase (CYP19) (Homo sapiens, UniProt P11511)	Aromatase inhibitory activity category	inactive
O=C(O)c1ccccc1NC1=C(Cl)C(=O)c2ccccc2C1=O	recombinant human aromatase (CYP19) (Homo sapiens, UniProt P11511)	Aromatase inhibitory activity category	weak
O=C1C(Cl)=C(Nc2ccccc2)C(=O)c2ccccc21	recombinant human aromatase (CYP19) (Homo sapiens, UniProt P11511)	Aromatase inhibitory activity category	inactive
